test system: spontaneously hypertensive rats (SHR); assay: Antihypertensive activity test: blood pressure and heart rate of spontaneously hypertensive rats (SHR); format: in vivo, rat; conditions: 200 mg/kg, 6 h
Measure: SBP Difference before and after administration, 6 h (mmHg)
Lab book: enter the figure in mmHg, no units written.

Some compounds with known SBP Difference before and after administration, 6 h results, for comparison:
INSERT INTO results (compound, experimental_value) VALUES
  ('COc1cc(C(O)CO)ccc1O (stereo not shown) [Compound 25]', 11),
  ('CCc1cccc(C(O)COC(=O)[C@@H](C)N)c1 (stereo partly shown) [Compound 22]', 20);

Inquiry: Give its SBP Difference before and after administration, 6 h value. Item: CCc1cccc([C@H](O)CO)c1 [Compound 1-2]
Reply text: 8

Inquiry: Give its SBP Difference before and after administration, 6 h value. Item: CCOC(=O)OC(CO)c1cccc(CC)c1 (stereo not shown) [Compound 19]
Reply text: 8
